Data credit: ChEMBL document CHEMBL3091298

# assay_explanation: Genotoxicity in uvrA-deficient Escherichia coli assessed as survival at 1 ug/ml after 6 hrs by DNA-repair test
# Assay type: toxicity, organism-based
# condition_details: read-out: Survival
Kindly supply the reported viability at 6 h, 1 ug/ml values for the records listed here.
Only the number, expressed in %, is required.

Entry "Cc1nc(C[P+](c2ccccc2)(c2ccccc2)c2ccccc2)c(C[P+](c2ccccc2)(c2ccccc2)c2ccccc2)c2c1OC(C)(C)OC2.[Cl-].[Cl-]" ; viability at 6 h, 1 ug/ml = 103

Entry CCCC1OCc2c(C[P+](c3ccccc3)(c3ccccc3)c3ccccc3)c(C[P+](c3ccccc3)(c3ccccc3)c3ccccc3)nc(C)c2O1.[Cl-].[Cl-] (stereo not drawn) ; viability at 6 h, 1 ug/ml = 113

Entry "CCCC[P+](CCCC)(CCCC)Cc1nc(C)c2c(c1C[P+](CCCC)(CCCC)CCCC)COC(C)(C)O2.[Cl-].[Cl-]" ; viability at 6 h, 1 ug/ml = 109
